Assay System: MAPKAPK2 (Homo sapiens, UniProt P49137)
Construct: purchased Perkin Elmer (ProfilerPro assay kit 1)
Sequence (P49137 whole entry): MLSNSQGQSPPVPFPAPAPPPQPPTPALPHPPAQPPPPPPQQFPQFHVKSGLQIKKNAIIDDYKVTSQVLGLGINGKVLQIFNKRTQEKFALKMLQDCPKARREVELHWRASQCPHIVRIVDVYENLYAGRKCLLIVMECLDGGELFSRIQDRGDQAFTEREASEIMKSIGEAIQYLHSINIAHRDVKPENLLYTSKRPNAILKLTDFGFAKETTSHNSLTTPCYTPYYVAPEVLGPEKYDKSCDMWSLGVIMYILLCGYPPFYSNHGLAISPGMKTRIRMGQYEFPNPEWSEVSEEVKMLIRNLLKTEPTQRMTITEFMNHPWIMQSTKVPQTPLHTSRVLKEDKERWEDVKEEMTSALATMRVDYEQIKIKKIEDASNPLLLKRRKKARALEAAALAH
Assay Name: 26-kinase panel mobility shift assay, single concentration
Type: biochemical
Experimental Parameters: read-out: % Inhibition MAPKAPK2
Endpoint: inhibition at 100 µM
Write the quantity with the unit trailing the number.

> print(dat)
                                   compound              endpoint  assay.value
1  Nc1cc(-c2ccnc3ccccc23)c[nH]c1=O [Compound 6]  inhibition at 100 µM          32%
2  Nc1ccc[nH]c1=O [Compound 1, 3-aminopyridin-2-one]  inhibition at 100 µM          25%
3  CNc1nccc(-c2c[nH]c(=O)c(N)c2)n1 [Compound 7]  inhibition at 100 µM          79%
4  Cn1cc(-c2c[nH]c(=O)c(N)c2)cn1 [Compound 2]  inhibition at 100 µM          97%
5  COc1ncc(-c2ccncc2)cc1N [Compound 5, 6-Methoxy-3,4′-bipyridin-5-amine]  inhibition at 100 µM          19%

Give inhibition at 100 µM for all compounds that follow.
1. Cc1nc(O)c(N)cc1-c1ccncc1 [Compound 15]
2. Nc1cc(-c2ccnc(NC3CC3)n2)c[nH]c1=O [Compound 8]

Result:
1: 33%; 2: 28%

###

Assay System: MSK1 (Homo sapiens)
Construct: purchased Perkin Elmer (ProfilerPro assay kit 1)
Sequence (O75582 whole entry): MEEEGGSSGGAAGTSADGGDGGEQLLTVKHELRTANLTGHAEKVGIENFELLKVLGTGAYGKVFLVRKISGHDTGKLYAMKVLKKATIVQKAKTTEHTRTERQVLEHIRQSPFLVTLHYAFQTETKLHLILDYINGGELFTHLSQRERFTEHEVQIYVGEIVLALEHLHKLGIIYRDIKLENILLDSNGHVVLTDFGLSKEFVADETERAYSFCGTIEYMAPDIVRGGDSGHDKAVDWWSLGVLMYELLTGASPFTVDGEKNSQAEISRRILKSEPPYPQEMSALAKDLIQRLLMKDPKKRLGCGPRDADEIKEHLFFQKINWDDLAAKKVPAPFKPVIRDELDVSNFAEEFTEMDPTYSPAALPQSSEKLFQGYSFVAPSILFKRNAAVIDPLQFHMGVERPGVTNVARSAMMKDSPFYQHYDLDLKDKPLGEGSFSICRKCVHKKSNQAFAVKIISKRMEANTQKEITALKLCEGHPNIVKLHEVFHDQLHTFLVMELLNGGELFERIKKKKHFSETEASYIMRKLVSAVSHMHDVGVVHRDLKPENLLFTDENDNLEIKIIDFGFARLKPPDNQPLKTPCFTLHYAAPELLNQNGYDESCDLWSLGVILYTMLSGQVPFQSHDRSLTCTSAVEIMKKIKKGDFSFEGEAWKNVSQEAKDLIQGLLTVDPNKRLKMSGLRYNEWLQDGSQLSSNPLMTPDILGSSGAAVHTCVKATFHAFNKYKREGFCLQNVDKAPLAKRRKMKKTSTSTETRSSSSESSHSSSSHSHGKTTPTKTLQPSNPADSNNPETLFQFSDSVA
Assay Name: 26-kinase panel mobility shift assay, single concentration
Assay type: biochemical
Experimental Parameters: read-out: % Inhibition MSK1
I'd appreciate it if you could supply inhibition at 100 µM values for the items below.
Numbers only, in %.

Observe how each entry below is paired with its result.
> print(dat)
                            compound  measurement.units  assay.value
1    CNc1nccc(-c2c[nH]c(=O)c(N)c2)n1                  %           94
2                     Nc1ccc[nH]c1=O                  %           26
3  Nc1cc(-c2ccnc(NC3CC3)n2)c[nH]c1=O                  %           27

Give inhibition at 100 µM for all compounds that follow.
1. Nc1cc(-c2ccnc3ccccc23)c[nH]c1=O
2. COc1ncc(-c2ccncc2)cc1N
3. Cc1nc(O)c(N)cc1-c1ccncc1
4. Cn1cc(-c2c[nH]c(=O)c(N)c2)cn1

Result:
22
61
14
95

###

Assay System: CHK2 (Homo sapiens, UniProt O96017)
Construct: purchased Perkin Elmer (ProfilerPro assay kit 1)
Sequence (O96017 whole entry): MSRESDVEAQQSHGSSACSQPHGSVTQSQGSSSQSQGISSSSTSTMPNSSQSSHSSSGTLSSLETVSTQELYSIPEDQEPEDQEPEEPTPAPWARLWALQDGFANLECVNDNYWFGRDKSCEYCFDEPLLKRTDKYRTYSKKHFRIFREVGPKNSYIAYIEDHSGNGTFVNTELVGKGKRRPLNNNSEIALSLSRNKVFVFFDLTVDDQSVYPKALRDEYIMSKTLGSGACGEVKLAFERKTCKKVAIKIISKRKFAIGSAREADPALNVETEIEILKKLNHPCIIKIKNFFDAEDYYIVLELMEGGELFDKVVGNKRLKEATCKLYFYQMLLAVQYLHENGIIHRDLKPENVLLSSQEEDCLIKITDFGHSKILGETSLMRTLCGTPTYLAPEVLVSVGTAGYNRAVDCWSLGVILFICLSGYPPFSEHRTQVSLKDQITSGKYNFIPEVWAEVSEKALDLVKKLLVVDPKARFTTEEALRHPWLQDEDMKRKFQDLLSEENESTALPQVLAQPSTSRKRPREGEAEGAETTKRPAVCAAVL
Assay Name: 26-kinase panel mobility shift assay, single concentration
Type: biochemical
Experimental Parameters: read-out: % Inhibition CHK2
I would appreciate it if you labelled entries rule met when inhibition at 100 µM is 60% or higher, otherwise rule not met.

Example results:
> print(dat)
                                   compound      category
1  COc1ncc(-c2ccncc2)cc1N [Compound 5, 6-Methoxy-3,4′-bipyridin-5-amine]  rule not met
2  CNc1nccc(-c2c[nH]c(=O)c(N)c2)n1 [Compound 7]      rule met
3  Nc1cc(-c2ccnc3ccccc23)c[nH]c1=O [Compound 6]  rule not met

Q: Please tell me: is the compound Cc1nc(O)c(N)cc1-c1ccncc1 [Compound 15] at or over 60% in terms of inhibition at 100 µM?
Result: rule not met

Q: Please tell me: is the compound Cn1cc(-c2c[nH]c(=O)c(N)c2)cn1 [Compound 2] at or over 60% in terms of inhibition at 100 µM?
Result: rule met

Q: Please tell me: is the compound Nc1ccc[nH]c1=O [Compound 1, 3-aminopyridin-2-one] at or over 60% in terms of inhibition at 100 µM?
Result: rule not met

// data source = paper PMC6008489
